measuredTarget: HLA-A*0201 (human), P04439
quantityName: BL50 (half-maximal binding level) (µM)
Quick note: give the figure in µM, leave out the unit.

Reference set, count: 5
LLFITGNTL (modifications not checked) [pp1a-3745] : 154
MLSRALKKV (modifications not checked) [pp1a-1288] : 65.1
KLNIKLLGI (modifications not checked) [pp1a-3816] : 68.1
VLAWLYAAV (modifications not checked) [pp1a-3444] : 53
FLLPSLATV (modifications not checked) [pp1a-3616] : 31.8

Prompt: For the binder SLQVCVQTV (modifications not checked) [pp1a-1139] , give its measured BL50 (half-maximal binding level) value.
Completion: 4.9

Prompt: Answer with the recorded BL50 (half-maximal binding level) for the binder listed here: QLSLPVLQV (modifications not checked) [pp1a-15]
Completion: 75.7

Prompt: Supply reported BL50 (half-maximal binding level) belonging to this binder: VLGSLAATV (modifications not checked) [pp1a-4219]
Completion: 53.3
